Assay: Stability in human liver microsomes at 1 uM after 30 mins
Assay type: ADME, Microsome
Conditions: read-out: Stability
Property label: remaining at 0.5 h, 1 µM (%)
Value expressed in %; do not type the unit.

query: Would you kindly share the measured remaining at 0.5 h, 1 µM for COc1cccc(C2SC(c3ccc(Cl)cc3)=NN2C(=O)c2c(F)cc(F)cc2F)c1OC (racemic) ?
result: 70

----------
Experiment: AUC in C57BL/6 mouse at 5 mg/kg, iv
Assay type: ADME, organism-based
Set-up: dose 5 mg/kg, route intravenous
Conditions: plasma
Property label: AUC (ng·h/mL)
Value expressed in ng·h/mL; do not type the unit.

>>> print(df.to_string())
                                   compound  test_value
0  COc1cccc(C2SC(c3ccc(F)cc3)=NN2C(=O)c2c(F)cc(F)cc2F)c1OC (configuration not stated)       35700

Now consider a different compound.
query: Would you kindly share the measured AUC for COc1cccc(C2SC(c3ccc(Cl)cc3)=NN2C(=O)c2c(F)cc(F)cc2F)c1OC (racemic) ?
result: 7140

----------
Overview of reported Efficacy across a group of compounds:
Target: Oxysterols receptor LXR-alpha (Homo sapiens)
Assay: Agonist activity at GAL-linked human LXRalpha expressed in THP1 cells assessed as stimulation of co-activator recruitment by FRET assay relative to GW-3965
Format: functional

query: Would you kindly share the measured Efficacy for O=C(c1c(F)cc(F)cc1F)N1N=C(c2ccc(F)cc2)SC1c1ccccc1OC(F)F (stereo not given) ?
result: 76%

query: Do the same for COc1ccccc1C1(C)SC(c2ccc(F)cc2)=NN1C(=O)c1c(F)cc(F)cc1F (stereo not given) please
result: < 15%

query: Do the same for COc1cccc(C2SC(c3ccc(F)cc3)=NN2C(=O)c2cc(F)c(F)cc2F)c1OC (stereo not given) please
result: < 15%

query: Do the same for COc1cccc(C2SC(c3ccc(Cl)c(Cl)c3)=NN2C(=O)c2c(F)cc(F)cc2F)c1OC (stereo not given) please
result: < 15%

query: Do the same for COc1cccc(C2SC(c3ccc(Cl)cc3)=NN2C(=O)c2c(F)cc(F)cc2F)c1 (stereo not given) please
result: < 15%

----------
Molecular target: Oxysterols receptor LXR-beta (Homo sapiens) (UniProt P55055)
Sequence (whole entry): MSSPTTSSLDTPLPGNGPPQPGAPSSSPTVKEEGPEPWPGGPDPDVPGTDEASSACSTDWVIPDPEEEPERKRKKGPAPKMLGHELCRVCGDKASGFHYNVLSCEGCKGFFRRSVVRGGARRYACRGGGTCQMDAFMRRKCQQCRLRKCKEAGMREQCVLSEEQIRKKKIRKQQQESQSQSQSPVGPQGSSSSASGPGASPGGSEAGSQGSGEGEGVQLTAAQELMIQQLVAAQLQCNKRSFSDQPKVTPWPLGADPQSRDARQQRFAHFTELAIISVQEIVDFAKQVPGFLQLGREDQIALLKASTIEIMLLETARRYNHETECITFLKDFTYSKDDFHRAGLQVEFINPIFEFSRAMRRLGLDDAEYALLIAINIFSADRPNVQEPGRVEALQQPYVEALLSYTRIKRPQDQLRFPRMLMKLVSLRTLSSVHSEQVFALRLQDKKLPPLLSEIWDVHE
Assay: Activity at human LXRbeta by Gal4 transactivation assay relative to GW-3965
Overview of reported Efficacy across a group of compounds:
Value expressed in %; do not type the unit.

>>> print(df.to_string())
                                   compound  test_value
0  O=C(O)Cc1cccc(OCCCN(Cc2cccc(C(F)(F)F)c2Cl)CC(c2ccccc2)c2ccccc2)c1         100
1  COc1cccc(C2SC(c3ccc(Cl)cc3)=NN2C(=O)c2c(F)cc(F)cc2F)c1OC (racemic)          82

Now consider a different compound.
query: Reported Efficacy for Oxysterols receptor LXR-beta (Homo sapiens) (UniProt P55055), given "COc1cccc([C@H]2SC(c3ccc(Cl)cc3)=NN2C(=O)c2c(F)cc(F)cc2F)c1OC" ?
result: 98
